- SYSTEM_TESTED: Glucocorticoid receptor (Homo sapiens)
- ASSAY: Transrepression activity at glucocorticoid receptor in human LPS and TPA-stimulated U937 cells assessed as effect on glucocorticoid-induced TNFalpha repression by beta lactamase reporter gene assay relative to dexamethasone
- Format: cell-based
- RUN_CONDITIONS: U-937
PARAMETER_MEASURED: Emax

Example cases with answers are listed next.
| CHEMICAL_STRING | Emax |
| --- | --- |
| CNC(=O)c1cccc(CC[C@]2(O)CCC3=Cc4c(cnn4-c4ccc(F)cc4)C[C@@]32C)c1 | < 10% |
| CC(C)NC(=O)c1ccccc1CC[C@]1(O)CCC2=Cc3c(cnn3-c3ccc(F)cc3)C[C@@]21C | 62% |

Lab request: please report Emax under test system Glucocorticoid receptor (Homo sapiens) for C[C@]12Cc3cnn(-c4ccc(F)cc4)c3C=C1[C@H](O)C[C@@]2(O)CCc1ccc(F)cc1C(N)=O
< 5%

* * *

- SYSTEM_TESTED: Glucocorticoid receptor (Homo sapiens) (UniProt P04150)
- Sequence (P04150 whole entry): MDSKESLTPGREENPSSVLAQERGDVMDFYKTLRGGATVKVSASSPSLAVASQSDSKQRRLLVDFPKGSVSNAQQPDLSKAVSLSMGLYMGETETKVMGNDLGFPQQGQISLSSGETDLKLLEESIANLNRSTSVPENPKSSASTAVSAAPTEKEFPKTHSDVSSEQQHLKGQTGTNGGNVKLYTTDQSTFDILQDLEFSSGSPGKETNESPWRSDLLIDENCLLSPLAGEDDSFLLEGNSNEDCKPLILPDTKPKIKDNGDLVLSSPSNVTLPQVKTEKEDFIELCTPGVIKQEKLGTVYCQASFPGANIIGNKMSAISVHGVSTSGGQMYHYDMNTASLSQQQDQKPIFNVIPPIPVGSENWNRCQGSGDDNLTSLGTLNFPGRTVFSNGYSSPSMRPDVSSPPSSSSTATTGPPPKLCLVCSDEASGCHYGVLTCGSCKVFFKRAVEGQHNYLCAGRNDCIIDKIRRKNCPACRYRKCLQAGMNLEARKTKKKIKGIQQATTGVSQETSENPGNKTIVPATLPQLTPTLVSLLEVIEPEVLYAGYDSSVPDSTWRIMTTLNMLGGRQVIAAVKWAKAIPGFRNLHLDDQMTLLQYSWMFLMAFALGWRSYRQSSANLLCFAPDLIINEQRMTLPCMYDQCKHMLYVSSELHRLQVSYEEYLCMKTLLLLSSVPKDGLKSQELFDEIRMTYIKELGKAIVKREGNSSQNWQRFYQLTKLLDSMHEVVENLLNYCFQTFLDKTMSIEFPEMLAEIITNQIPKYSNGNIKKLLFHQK
- ASSAY: Transactivation activity at GR-mediated modulation of MMTV promoter activity in human A549 cells transfected with luciferase gene linked to MMTV promoter after 16 hrs by luciferase reporter gene assay relative to dexamethasone
- Assay type: cell-based
Measured Emax determines class: low interval (below 30%), middle interval (30% to below 60%), high interval (60% or more)

| COMPOUND | SYSTEM_TESTED | CLASS |
| --- | --- | --- |
| CC(C)(CO)NC(=O)c1ccccc1CC[C@]1(O)CCC2=Cc3c(cnn3-c3ccc(F)cc3)C[C@@]21C | Glucocorticoid receptor (Homo sapiens) (UniProt P04150) | high interval |
| CC(C)NC(=O)c1ccccc1CC[C@]1(O)CCC2=Cc3c(cnn3-c3ccc(F)cc3)C[C@@]21C | Glucocorticoid receptor (Homo sapiens) (UniProt P04150) | middle interval |
| CCCNC(=O)c1ccccc1CC[C@]1(O)CCC2=Cc3c(cnn3-c3ccc(F)cc3)C[C@@]21C | Glucocorticoid receptor (Homo sapiens) (UniProt P04150) | low interval |
| C[C@]12Cc3cnn(-c4ccc(F)cc4)c3C=C1CC[C@@]2(O)CCc1cccc(F)c1C(=O)NC1(CO)CC1 | Glucocorticoid receptor (Homo sapiens) (UniProt P04150) | high interval |
| C[C@@]12C(=Cc3c(cnn3-c3ccc(F)cc3)C1O)CC[C@@]2(O)CCc1ccc(F)cc1C(N)=O (stereo not given in full) | Glucocorticoid receptor (Homo sapiens) (UniProt P04150) | low interval |

In plain terms, what class is CCNC(=O)c1ccccc1CC[C@]1(O)CCC2=Cc3c(cnn3-c3ccc(F)cc3)C(O)[C@@]21C (stereo not given in full) ?
low interval

Same lookup for CCNC(=O)c1ccccc1CC[C@]1(O)CCC2=Cc3c(cnn3-c3ccc(F)cc3)C[C@@]21C , please.
middle interval

Same lookup for C=CCNC(=O)c1ccccc1CC[C@]1(O)CCC2=Cc3c(cnn3-c3ccc(F)cc3)C[C@@]21C , please.
middle interval

Same lookup for CC(C)(C)NC(=O)c1ccccc1CC[C@]1(O)CCC2=Cc3c(cnn3-c3ccc(F)cc3)C[C@@]21C , please.
low interval

Same lookup for CCCNC(=O)c1c(F)cccc1CC[C@]1(O)CCC2=Cc3c(cnn3-c3ccc(F)cc3)C[C@@]21C , please.
low interval

Same lookup for C[C@]12Cc3cnn(-c4ccc(F)cc4)c3C=C1[C@H](O)C[C@@]2(O)CCc1ccc(F)cc1C(N)=O , please.
low interval

Same lookup for C[C@]12Cc3cnn(-c4ccc(F)cc4)c3C=C1CC[C@@]2(O)CCc1cccc(F)c1C(N)=O , please.
high interval

Same lookup for CNC(=O)c1ccc(CC[C@]2(O)CCC3=Cc4c(cnn4-c4ccc(F)cc4)C[C@@]32C)cc1 , please.
low interval

Same lookup for Cc1cc2cnn(-c3ccc(F)cc3)c2cc1CCC(=O)CCc1ccc(F)cc1C(=O)O , please.
low interval
